All values here come from patent US10730913B1.

test system: Staphylococcus aureus; test: MIC determination against ESKAPE pathogens (broth culture, 96-well, turbidity); assay type: cell-based; conditions: Staphylococcus aureus strain 635; 37° C.
Numbered stars: 1 amine (or outer) side, 2 acyl side, 3 side chain; on linkers, the order of the positions; unused ones are H or OH. Square brackets hold non-standard residues; d marks the D form. Peptide text beside a SMILES is read from it. X1 = NN([C@H](Cc1ccccc1)C(=O)[*:2])[*:1]; Orn(Nα-NH2) = NCCC[C@H](NN)C(=O)O
Provide the reported MC90 Results, Sa (+) of each item.
API: value field is a number in µM; no unit string.

Reported MC90 Results, Sa (+) for CC(C)C[C@@H]1NC(=O)[C@H](CCCN)N(N)C(=O)[C@H](C(C)C)NC(=O)[C@@H]2CCCN2C(=O)[C@@H](Cc2ccccc2)N(N)C(=O)[C@H](CC(C)C)NC(=O)[C@H](CCCN)N(N)C(=O)[C@H](C(C)C)NC(=O)[C@@H]2CCCN2C(=O)[C@@H](Cc2ccccc2)NC1=O [Compound 8] (cyclo(L[dF]PV[Orn(Nα-NH2)]L[X1]PV[Orn(Nα-NH2)])) was 2

CC(C)C[C@@H]1NC(=O)[C@H](CCCN)NC(=O)[C@H](C(C)C)NC(=O)[C@@H]2CCCN2C(=O)[C@@H](Cc2ccccc2)NC(=O)[C@H](CC(C)C)NC(=O)[C@H](CCCN)N(N)C(=O)[C@H](C(C)C)NC(=O)[C@@H]2CCCN2C(=O)[C@@H](Cc2ccccc2)NC1=O [Compound 3] (HELM PEPTIDE1{L.[dF].P.V.[Orn].L.[dF].P.V.[NCCC[C@@H](C(=O)[*:2])N(N)[*:1]]}$PEPTIDE1,PEPTIDE1,1:R1-10:R2$$$V2.0) yielded MC90 Results, Sa (+) of 2

====

tested on: Human red blood cells (hRBCs); test: Hemolysis assay using whole human blood; assay type: cell-based; conditions: 50 μM; hRBCs, 15 min at 37° C.; relative to 1.0% triton X-100
Peptide text beside a SMILES is read from it.
measurement.kind: Hemolytic Activity (% Hemolysis)

The compound CC(C)C[C@@H]1NC(=O)[C@H](CCCN)N(N)C(=O)[C@H](C(C)C)NC(=O)[C@@H]2CCCN2C(=O)[C@@H](Cc2ccccc2)NC(=O)[C@H](CC(C)C)NC(=O)[C@H](CCCN)N(N)C(=O)[C@H](C(C)C)NC(=O)[C@@H]2CCCN2C(=O)[C@@H](Cc2ccccc2)NC1=O [Compound 7] (HELM PEPTIDE1{L.[dF].P.V.[NCCC[C@@H](C(=O)[*:2])N(N)[*:1]].L.[dF].P.V.[NCCC[C@@H](C(=O)[*:2])N(N)[*:1]]}$PEPTIDE1,PEPTIDE1,1:R1-10:R2$$$V2.0) showed Hemolytic Activity (% Hemolysis) equal to 15.84%

====

Tested on: Human red blood cells (hRBCs)
Test: Hemolysis assay using whole human blood
Assay type: cell-based
Settings: 12.5 μM; hRBCs, 15 min at 37° C.; relative to 1.0% triton X-100
Description: Hemolytic Activity: The hemolytic activity of the compounds disclosed herein was also tested. A hemolysis assay was performed using whole human blood (Bioreclamation). […] Cells were incubated for 15 min at 37° C. before being centrifuged at 5500 g for 1 min to pellet nonlysed hRBCs. The supernatant was removed, added to a 96-well microtiter plate, and the OD543 was read using a Biotek synergy2 plate reader. The negative control was vehicle only (DMSO), and the positive control was 1.0% triton X-100.
Numbered stars: 1 amine (or outer) side, 2 acyl side, 3 side chain; on linkers, the order of the positions; unused ones are H or OH. Square brackets hold non-standard residues; d marks the D form. Peptide text beside a SMILES is read from it. X1 = NN([C@H](Cc1ccccc1)C(=O)[*:2])[*:1]; Orn(Nα-NH2) = NCCC[C@H](NN)C(=O)O; Orn = NCCC[C@H](N)C(=O)O
measurement.kind: Hemolytic Activity (% Hemolysis) (%)
Respond with the bare value in %.

Reported Hemolytic Activity (% Hemolysis) of CC(C)C[C@@H]1NC(=O)[C@H](CCCN)N(N)C(=O)[C@H](C(C)C)NC(=O)[C@@H]2CCCN2C(=O)[C@@H](Cc2ccccc2)N(N)C(=O)[C@H](CC(C)C)NC(=O)[C@H](CCCN)N(N)C(=O)[C@H](C(C)C)NC(=O)[C@@H]2CCCN2C(=O)[C@@H](Cc2ccccc2)NC1=O [Compound 8] (cyclo(L[dF]PV[Orn(Nα-NH2)]L[X1]PV[Orn(Nα-NH2)])) : 0.88

# compound CC(C)C[C@@H]1NC(=O)[C@H](CCCN)N(N)C(=O)[C@H](C(C)C)NC(=O)[C@@H]2CCCN2C(=O)[C@@H](Cc2ccccc2)NC(=O)[C@H](CC(C)C)NC(=O)[C@H](CCCN)N(N)C(=O)[C@H](C(C)C)NC(=O)[C@@H]2CCCN2C(=O)[C@@H](Cc2ccccc2)NC1=O [Compound 7] (HELM PEPTIDE1{L.[dF].P.V.[NCCC[C@@H](C(=O)[*:2])N(N)[*:1]].L.[dF].P.V.[NCCC[C@@H](C(=O)[*:2])N(N)[*:1]]}$PEPTIDE1,PEPTIDE1,1:R1-10:R2$$$V2.0) ; its Hemolytic Activity (% Hemolysis) = 0.21

The value of Hemolytic Activity (% Hemolysis) measured for the compound CC(C)C[C@@H]1NC(=O)[C@H](CCCN)N(N)C(=O)[C@H](C(C)C)NC(=O)[C@@H]2CCCN2C(=O)[C@@H](Cc2ccccc2)N(N)C(=O)[C@H](CC(C)C)NC(=O)[C@H](CCCN)NC(=O)[C@H](C(C)C)NC(=O)[C@@H]2CCCN2C(=O)[C@@H](Cc2ccccc2)NC1=O [Compound 4] (HELM PEPTIDE1{L.[dF].P.V.[Orn].L.[NN([C@H](Cc1ccccc1)C(=O)[*:2])[*:1]].P.V.[NCCC[C@@H](C(=O)[*:2])N(N)[*:1]]}$PEPTIDE1,PEPTIDE1,1:R1-10:R2$$$V2.0) turned out to be 0.00

For this compound ( CC(C)C[C@@H]1NC(=O)[C@H](CCCN)NC(=O)[C@H](C(C)C)NC(=O)[C@@H]2CCCN2C(=O)[C@@H](Cc2ccccc2)N(N)C(=O)[C@H](CC(C)C)NC(=O)[C@H](CCCN)N(N)C(=O)[C@H](C(C)C)NC(=O)[C@@H]2CCCN2C(=O)[C@@H](Cc2ccccc2)N(N)C1=O [Compound 5] (cyclo(L[X1]PV[Orn]L[X1]PV[Orn(Nα-NH2)])) ), measured Hemolytic Activity (% Hemolysis) is 0.00
